Exercise: for every item that follows, state its recorded Retention_time.
Answers are plain numbers, in min.

// for each compound below, give its Retention_time
1. O=C(COC(=O)C#Cc1ccccc1)NCCC[Te]c1ccccc1
2. COc1ccc(N(CC(=O)NCCC[Se]c2ccccc2)C(=O)CCSC2=C(C)C(=O)c3ccccc3C2=O)cc1
3. COc1ccc(N(CC(=O)NCCC[Se]c2ccccc2)C(=O)/C=C/c2ccccc2)cc1
4. CC(C)(C)OC(=O)NCC(=O)OCC(=O)NCCC[Te]c1ccccc1
5. c1ccc2c(c1)ccc1ccccc12
6. COc1ccc(N(CC(=O)NCCC[Se]c2ccccc2)C(=O)c2ccccc2)cc1

0.794
3.297
2.088
2.247
3.615
1.412

// batch mode: one Retention_time value per listed entry
1. COc1ccc(N(CC(=O)NCCCSc2ccccc2)C(=O)CNC(=O)OC(C)(C)C)cc1
2. O=C(COC(=O)/C=C/c1ccccc1)NCCC[Te]c1ccccc1

1. 2.17
2. 1.356

# per-item lookup of Retention_time; items listed below
1. CC1=C(SCCC(=O)OCC(=O)NCCC[Te]c2ccccc2)C(=O)c2ccccc2C1=O
2. COc1ccc(N(CC(=O)NCCCSc2ccccc2)C(=O)C#Cc2ccccc2)cc1
3. COc1ccc(N(CC(=O)NCCCSc2ccccc2)C(=O)CCSC2=C(C)C(=O)c3ccccc3C2=O)cc1

1. 0.928
2. 1.698
3. 2.94

Give me Retention_time for each of these compounds, listed below.
1. COc1ccc(N(CC(=O)NCCC[Te]c2ccccc2)C(=O)c2ccccc2)cc1
2. COc1ccc(N(CC(=O)NCCC[Te]c2ccccc2)C(=O)CNC(=O)OC(C)(C)C)cc1
3. c1ccc2ccccc2c1
4. Cc1ccc(C(C)C)c(O)c1
5. COc1ccc(N(CC(=O)NCCC[Te]c2ccccc2)C(=O)CCSC2=C(C)C(=O)c3ccccc3C2=O)cc1
6. COc1ccc(N(CC(=O)NCCC[Se]c2ccccc2)C(=O)CNC(=O)OC(C)(C)C)cc1
7. COc1ccc(N(CC(=O)NCCCSc2ccccc2)C(=O)c2ccccc2)cc1

1. 0.89
2. 1.548
3. 1.894
4. 1.285
5. 0.938
6. 1.434
7. 1.407

Batch lookup, Retention_time per entry.
1. COc1ccc(N(CC(=O)NCCC[Te]c2ccccc2)C(=O)/C=C/c2ccccc2)cc1
2. COc1ccc(N(CC(=O)NCCC[Se]c2ccccc2)C(=O)C#Cc2ccccc2)cc1
3. COc1ccc(N(CC(=O)NCCCSc2ccccc2)C(=O)/C=C/c2ccccc2)cc1

1. 0.834
2. 1.134
3. 2.514

Each of the following entries comes with a recorded value; kindly state Retention_time for each.
1. Cc1ccccc1
2. NC(N)=S
3. CC(=O)Nc1ccccc1 [ACETANILIDE]

[1.508, 0.728, 0.811]

###

test: Growth inhibition of human HCT116 cells after 48 hrs; type: functional; conditions: HCT-116, 48 h, read-out: pLC50 (the source's name) (converted)
reportedEndpoint: CC50 (µM)
Give bare numbers, in µM.

Would you kindly share the measured CC50 for COc1ccc(N(CC(=O)NCCC[Te]c2ccccc2)C(=O)CNC(=O)OC(C)(C)C)cc1 ?
49

Could you share which CC50 value was measured for COc1ccc(N(CC(=O)NCCC[Te]c2ccccc2)C(=O)c2ccccc2)cc1 ?
44.7

Value sought for every listed compound: CC50.
1. COc1ccc(N(CC(=O)NCCC[Te]c2ccccc2)C(=O)CCSC2=C(C)C(=O)c3ccccc3C2=O)cc1
2. CC1=C(SCCC(=O)OCC(=O)NCCC[Te]c2ccccc2)C(=O)c2ccccc2C1=O

5.5
11.5
